Examples of compounds with documented Papp A→B at 2 h, 5 μM follow.
Assay: Caco-2 permeability
Type: in vitro ADME
Details: human, Caco-2; 5 μM, 2 h
Express it in ×10⁻⁶ cm/s; write the number only.

Take a look at these entries with their results.
{"Compound": "COc1cc2ncnc(Nc3cccc(Cl)c3F)c2cc1OCCON1CCOCC1", "Papp A→B at 2 h, 5 μM, ×10⁻⁶ cm/s": 10.9}
{"Compound": "COCCc1ccc(OCC(O)CNC(C)C)cc1 (stereo not drawn) [Metoprolol, reference compound]", "Papp A→B at 2 h, 5 μM, ×10⁻⁶ cm/s": 24.9}
{"Compound": "COc1cc2ncnc(Nc3ccc(F)c(Cl)c3)c2cc1OCCON1CCN(C)CC1", "Papp A→B at 2 h, 5 μM, ×10⁻⁶ cm/s": 0.63}
{"Compound": "C[C@H]1O[C@@H](O[C@H]2[C@@H](O)C[C@H](O[C@H]3[C@@H](O)C[C@H](O[C@H]4CC[C@@]5(C)[C@H](CC[C@@H]6[C@@H]5C[C@@H](O)[C@]5(C)[C@@H](C7=CC(=O)OC7)CC[C@]65O)C4)O[C@@H]3C)O[C@@H]2C)C[C@H](O)[C@@H]1O [Digoxin, reference compound]", "Papp A→B at 2 h, 5 μM, ×10⁻⁶ cm/s": 0.27}
{"Compound": "COc1cc2ncnc(Nc3cccc(Cl)c3F)c2cc1OCCON1CCN(C)CC1", "Papp A→B at 2 h, 5 μM, ×10⁻⁶ cm/s": 6.52}

What Papp A→B at 2 h, 5 μM value was documented for this compound, COc1cc2ncnc(Nc3ccc(F)c(Cl)c3)c2cc1OCCON1CCOCC1 ?
5.59

* * *

Experiment: Pharmacokinetic study
Type: in vivo, Sprague-Dawley rats
Settings: male, Sprague-Dawley, plasma; rat, 20 mg/kg PO
Measurement Kind: AUC(0-inf) (ng·h/mL)
Express it in ng·h/mL; write the number only.

What AUC(0-inf) value was documented for this compound, COc1cc2ncnc(Nc3cccc(Cl)c3F)c2cc1OCCON1CCN(C)CC1 ?
3910

* * *

Experiment: Caco-2 permeability
Type: in vitro ADME
Conditions: human, Caco-2; 5 μM, 2 h
Short version: Papp B→A at 2 h, 5 μM at least 10 ×10⁻⁶ cm/s is T, less is F.

// known answers, use as guide
{"Compound": "COc1cc2ncnc(Nc3cccc(Cl)c3F)c2cc1OCCON1CCOCC1", "Group": "T"}
{"Compound": "COCCc1ccc(OCC(O)CNC(C)C)cc1 (centres unmarked) [Metoprolol, reference compound]", "Group": "T"}

Given COc1cc2ncnc(Nc3cccc(Cl)c3F)c2cc1OCCON1CCN(C)CC1 , state whether its Papp B→A at 2 h, 5 μM is at least 10 ×10⁻⁶ cm/s.
F

Likewise for COc1cc2ncnc(Nc3ccc(F)c(Cl)c3)c2cc1OCCON1CCOCC1 ?
T

Likewise for C[C@H]1O[C@@H](O[C@H]2[C@@H](O)C[C@H](O[C@H]3[C@@H](O)C[C@H](O[C@H]4CC[C@@]5(C)[C@H](CC[C@@H]6[C@@H]5C[C@@H](O)[C@]5(C)[C@@H](C7=CC(=O)OC7)CC[C@]65O)C4)O[C@@H]3C)O[C@@H]2C)C[C@H](O)[C@@H]1O [Digoxin, reference compound] ?
T

* * *

Experiment: Plasma protein binding by equilibrium dialysis
Type: in vitro ADME
Conditions: Sprague-Dawley, rat, rat plasma
Examples of compounds with documented remaining at 6 h, 5 μM follow.
Express it in %; write the number only.

{"Compound": "COc1cc2ncnc(Nc3cccc(Cl)c3F)c2cc1OCCON1CCOCC1", "remaining at 6 h, 5 μM, %": 101}

What remaining at 6 h, 5 μM value was documented for this compound, COc1cc2ncnc(Nc3cccc(Cl)c3F)c2cc1OCCON1CCN(C)CC1 ?
99.6

Likewise for COc1cc2ncnc(Nc3ccc(F)c(Cl)c3)c2cc1OCCCN1CCOCC1 [Gefitinib (1), Gefitinib, reference compound] ?
105

* * *

Experiment: Metabolic stability in liver microsomes
Type: in vitro ADME, human
Details: human LM, -Cofactors, 60 min
Measurement Kind: Remaining Percentage (%)
Express it in %; write the number only.

Take a look at these entries with their results.
{"Compound": "COc1cc2ncnc(Nc3ccc(F)c(Cl)c3)c2cc1OCCON1CCOCC1", "Unit Descriptor": "%", "Remaining Percentage": 89.19}
{"Compound": "COc1cc2ncnc(Nc3cccc(Cl)c3F)c2cc1OCCON1CCN(C)CC1", "Unit Descriptor": "%", "Remaining Percentage": 109.86}
{"Compound": "COc1cc2ncnc(Nc3ccc(F)c(Cl)c3)c2cc1OCCCN1CCOCC1 [Gefitinib (1), Gefitinib, reference compound]", "Unit Descriptor": "%", "Remaining Percentage": 100.00}

What Remaining Percentage value was documented for this compound, COc1cc2ncnc(Nc3ccc(F)c(Cl)c3)c2cc1OCCON1CCN(C)CC1 ?
95.02

Likewise for COc1cc2ncnc(Nc3cccc(Cl)c3F)c2cc1OCCON1CCOCC1 ?
87.34

* * *

Test: Caco-2 permeability
Type: in vitro ADME
Conditions: human, Caco-2, Caco-2; read-out: Recovery% (BL-AP)
Measurement Kind: recovery at 2 h, 5 μM

Take a look at these entries with their results.
{"Compound": "C[C@H]1O[C@@H](O[C@H]2[C@@H](O)C[C@H](O[C@H]3[C@@H](O)C[C@H](O[C@H]4CC[C@@]5(C)[C@H](CC[C@@H]6[C@@H]5C[C@@H](O)[C@]5(C)[C@@H](C7=CC(=O)OC7)CC[C@]65O)C4)O[C@@H]3C)O[C@@H]2C)C[C@H](O)[C@@H]1O [Digoxin, reference compound]", "recovery at 2 h, 5 μM": "96.2%"}
{"Compound": "COc1cc2ncnc(Nc3ccc(F)c(Cl)c3)c2cc1OCCON1CCN(C)CC1 [Compound 8]", "recovery at 2 h, 5 μM": "72.3%"}
{"Compound": "COc1cc2ncnc(Nc3ccc(F)c(Cl)c3)c2cc1OCCON1CCOCC1 [Compound 6]", "recovery at 2 h, 5 μM": "60.3%"}
{"Compound": "COc1cc2ncnc(Nc3cccc(Cl)c3F)c2cc1OCCON1CCOCC1 [Compound 7]", "recovery at 2 h, 5 μM": "72.2%"}

What recovery at 2 h, 5 μM value was documented for this compound, COc1cc2ncnc(Nc3cccc(Cl)c3F)c2cc1OCCON1CCN(C)CC1 [Compound 9] ?
73.5%

Likewise for COCCc1ccc(OCC(O)CNC(C)C)cc1 (stereo not drawn) [Metoprolol, reference compound] ?
98.4%

* * *

Assay: Metabolic stability in liver microsomes
Assay type: in vitro ADME, human
Conditions: human LM, +Cofactors, 45 min
The label true is reserved for Remaining Percentage strictly under 20%; false covers values equal to or above it.

// known answers, use as guide
{"Molecule": "COc1cc2ncnc(Nc3ccc(F)c(Cl)c3)c2cc1OCCON1CCOCC1", "Group": "false"}
{"Molecule": "COc1cc2ncnc(Nc3ccc(F)c(Cl)c3)c2cc1OCCON1CCN(C)CC1", "Group": "false"}
{"Molecule": "COc1cc2ncnc(Nc3ccc(F)c(Cl)c3)c2cc1OCCCN1CCOCC1 [Gefitinib (1), Gefitinib, reference compound]", "Group": "true"}
{"Molecule": "COc1cc2ncnc(Nc3cccc(Cl)c3F)c2cc1OCCON1CCN(C)CC1", "Group": "false"}

Consider the record given below.
Just wondering, is Remaining Percentage of COc1cc2ncnc(Nc3cccc(Cl)c3F)c2cc1OCCON1CCOCC1 below 20%?
true

* * *

Assay: Plasma protein binding by equilibrium dialysis
Format: in vitro ADME, mouse
Details: CD-1, plasma; mouse, 5 μM; read-out: fu,plasma% / %Unbound
Measurement Kind: fraction unbound at 6 h, 5 µM
Provide a numeric answer; units are not to be included.

What fraction unbound at 6 h, 5 µM value was documented for this molecule, COc1cc2ncnc(Nc3cccc(Cl)c3F)c2cc1OCCON1CCN(C)CC1 [Compound 9] ?
0.07

* * *

Experiment: Oral CNS pharmacokinetic assessment
Format: in vivo, Sprague-Dawley rats
Conditions: male, Sprague-Dawley, brain; Rat 20 mg/kg (PO); read-out: Kp brain (AUCinf)
Measurement Kind: Kp at 24 h
Provide a numeric answer; units are not to be included.

What Kp at 24 h value was documented for this compound, COc1cc2ncnc(Nc3cccc(Cl)c3F)c2cc1OCCON1CCN(C)CC1 ?
0.95

* * *

Experiment: Plasma stability
Format: in vitro ADME, human
Conditions: human, plasma
Measurement Kind: remaining at 5 μM

What remaining at 5 μM value was documented for this compound, COc1cc2ncnc(Nc3cccc(Cl)c3F)c2cc1OCCON1CCN(C)CC1 [Compound 9] ?
> 90%

* * *

Tested on: NCI-H1975 (EGFR mutation = L858R/T790M)
Assay: CellTiter-Glo cell viability assay
Type: cell-based, human
Settings: Homo sapiens, NCI-H1975; 72 h, unadjusted for FBS
Measurement Kind: IC50

What IC50 value was documented for this compound, COc1cc2ncnc(Nc3cccc(Cl)c3F)c2cc1OCCON1CCN(C)CC1 ?
> 10 µM

The reported numbers originate from paper PMC10683025.
